Values from patent US20100292260A1

molecular target: reverse transcriptase containing the mutation K103N (Human immunodeficiency virus type 1 group M subtype B, UniProt P03366, K702N); construct: cloning the gene of the mutated RT in an expression vector for prokariotic cells; test: Enzyme test with mutated reverse transcriptase K103N
List of IC50 values.
ATTRIBUTE_MEASURED: IC50

{"columns": ["COMPOUND", "ATTRIBUTE_MEASURED", "VAL"],
 "data": [
  ["COc1ccc(C=CCSc2nc(C(C)c3c(F)cccc3F)c(C)c(=O)[nH]2)cc1 (stereo not shown) [Compound 26n]", "IC50", "3.7 µM"],
  ["C=Cc1nc(S(C)(=O)=O)nc(N(C)C)c1I", "IC50", "> 400 µM"],
  ["COc1ccc(C=CCSc2nc(Cc3c(F)cccc3F)c(C)c(=O)[nH]2)cc1 [Compound 26l]", "IC50", "> 20 µM"],
  ["Cc1c(C(C)c2c(Cl)cccc2Cl)nc(SCC=Cc2ccc([N+](=O)[O-])cc2)[nH]c1=O (stereo not shown) [Compound 26h]", "IC50", "> 20 µM"]
]}
